Data provenance is paper PMC7957565.

# target of assay: butyrylcholinesterase (BuChE, from equine serum) (Equus caballus, UniProt P81908)
# Sequence (P81908 whole entry): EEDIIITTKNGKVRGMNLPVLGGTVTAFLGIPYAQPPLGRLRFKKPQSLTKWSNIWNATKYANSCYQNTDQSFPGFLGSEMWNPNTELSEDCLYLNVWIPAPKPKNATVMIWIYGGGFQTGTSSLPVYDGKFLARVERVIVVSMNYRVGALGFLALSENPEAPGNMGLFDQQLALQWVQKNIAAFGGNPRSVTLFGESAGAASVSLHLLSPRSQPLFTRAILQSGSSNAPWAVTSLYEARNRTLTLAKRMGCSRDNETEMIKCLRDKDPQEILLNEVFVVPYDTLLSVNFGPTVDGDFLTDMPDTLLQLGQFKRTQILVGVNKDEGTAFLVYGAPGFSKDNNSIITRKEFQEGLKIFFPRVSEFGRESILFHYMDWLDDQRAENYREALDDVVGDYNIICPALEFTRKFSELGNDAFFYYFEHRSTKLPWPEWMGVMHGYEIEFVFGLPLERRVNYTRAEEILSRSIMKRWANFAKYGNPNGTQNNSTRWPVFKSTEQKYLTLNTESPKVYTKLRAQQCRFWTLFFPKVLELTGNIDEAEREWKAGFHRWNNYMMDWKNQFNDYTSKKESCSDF
# assay name: biochemical
# measurement setup: eqBuChE; mean ± spread
metric name: IC50 (µM)

>>> val("CC1(C)C=Cc2c(c(/C=C/C(=O)NC3CCN(Cc4ccccc4F)CC3)cc3c2[nH]c2ccc(C(C)(C)C)cc23)O1 [Compound 6ab]")
35.9
>>> val("COc1ccc2[nH]c3c4c(c(/C=C/C(=O)NC5CCN(Cc6ccccc6C)CC5)cc3c2c1)OC(C)(C)C=C4 [Compound 6ag]")
26.4
>>> val("COc1ccc2[nH]c3c4c(c(C=O)cc3c2c1)OC(C)(C)C=C4 [Clau F, Claulansine F, reference compound]")
64.3
>>> val("CC1(C)C=Cc2c(c(/C=C/C(=O)NCCC3CCN(Cc4ccccc4F)CC3)cc3c2[nH]c2ccc(C(C)(C)C)cc23)O1 [Compound 6cb]")
19.1
>>> val("COc1ccc2[nH]c3c4c(c(/C=C/C(=O)NCCC5CCN(Cc6ccccc6Cl)CC5)cc3c2c1)OC(C)(C)C=C4 [Compound 6ch]")
24.2
>>> val("CC1(C)C=Cc2c(c(/C=C/C(=O)NC3CCN(Cc4ccccc4)CC3)cc3c2[nH]c2ccc(C(C)(C)C)cc23)O1 [Compound 6aa]")
22.9
>>> val("CC1(C)C=Cc2c(c(/C=C/C(=O)NCC3CCN(Cc4ccccc4F)CC3)cc3c2[nH]c2ccc(C(C)(C)C)cc23)O1 [Compound 6bb]")
5.63
>>> val("Cc1ccccc1CN1CCC(CNC(=O)/C=C/c2cc3c([nH]c4ccc(C(C)(C)C)cc43)c3c2OC(C)(C)C=C3)CC1 [Compound 6bc]")
19
>>> val("CC1(C)C=Cc2c(c(/C=C/C(=O)NCCC3CCN(Cc4ccccc4)CC3)cc3c2[nH]c2ccc(C(C)(C)C)cc23)O1 [Compound 6ca]")
23.4
>>> val("COc1ccc2[nH]c3c4c(c(/C=C/C(=O)NC5CCN(Cc6ccccc6Cl)CC5)cc3c2c1)OC(C)(C)C=C4 [Compound 6ah]")
18
>>> val("COc1ccc2[nH]c3c4c(c(/C=C/C(=O)NCC5CCN(Cc6ccccc6)CC5)cc3c2c1)OC(C)(C)C=C4 [Compound 6bg]")
74.9
>>> val("COc1ccc2[nH]c3c4c(c(/C=C/C(=O)NC5CCN(Cc6ccccc6F)CC5)cc3c2c1)OC(C)(C)C=C4 [Compound 6af]")
24.5
>>> val("CC1(C)C=Cc2c(c(/C=C/C(=O)NCC3CCN(Cc4ccccc4Cl)CC3)cc3c2[nH]c2ccc(C(C)(C)C)cc23)O1 [Compound 6bd]")
5.46

----------
# Test system: primary cortical neurons
# assay name: Neuroprotection against OGD/R injury, MTT cell viability
# Assay type: cell-based
# measurement setup: Rattus norvegicus, Primary cortical neuron, compound 10 μM, control 100%, OGD/R group 40.4%, read-out: Cell viability (MTT) after OGD/R
metric name: viability at 10 µM (%)

>>> val("Cc1cc2c([nH]c3ccc(C(C)(C)C)cc32)c2c1OC(C)(C)C=C2 [CZ-7, reference compound]")
113
>>> val("CC1(C)C=Cc2c(c(/C=C/C(=O)NCC3CCN(Cc4cccc(Cl)c4)CC3)cc3c2[nH]c2ccc(C(C)(C)C)cc23)O1")
105
>>> val("CC1(C)C=Cc2c(c(/C=C/C(=O)NCC3CCN(Cc4ccccc4F)CC3)cc3c2[nH]c2ccc(C(C)(C)C)cc23)O1")
109
>>> val("CC1(C)C=Cc2c(c(/C=C/C(=O)NCC3CCN(Cc4ccccc4Cl)CC3)cc3c2[nH]c2ccc(C(C)(C)C)cc23)O1")
126
>>> val("CC1(C)C=Cc2c(c(/C=C/C(=O)NCC3CCN(Cc4ccc(Cl)cc4)CC3)cc3c2[nH]c2ccc(C(C)(C)C)cc23)O1")
107
